Target protein (sequence): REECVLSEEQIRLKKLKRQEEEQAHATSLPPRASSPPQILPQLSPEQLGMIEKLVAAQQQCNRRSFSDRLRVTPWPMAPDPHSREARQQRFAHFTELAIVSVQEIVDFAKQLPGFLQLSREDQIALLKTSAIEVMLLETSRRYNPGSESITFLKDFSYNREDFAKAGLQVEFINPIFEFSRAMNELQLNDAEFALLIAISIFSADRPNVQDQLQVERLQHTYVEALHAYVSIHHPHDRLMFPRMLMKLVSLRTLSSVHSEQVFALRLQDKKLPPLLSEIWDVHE
pKd: −log10 of the molar value.
property_measured: pKd

# get_value(readout='pKd', item= `CCCc1c(OCCCSc2ccc(CC(=O)O)cc2Cl)ccc2c(C(F)(F)F)noc12` )
~7.82
